- Assayed System: PPARG (peroxisome proliferator activated receptor-gamma), GST-PPARG-LBD (Homo sapiens, UniProt P37231)
- Construct: 15 μL of 5 nM GST-PPARG-LBD and 5 nM Tb-GST-antibody were added; purchased Invitrogen PV4894
- Sequence (P37231 238-503 limits assumed): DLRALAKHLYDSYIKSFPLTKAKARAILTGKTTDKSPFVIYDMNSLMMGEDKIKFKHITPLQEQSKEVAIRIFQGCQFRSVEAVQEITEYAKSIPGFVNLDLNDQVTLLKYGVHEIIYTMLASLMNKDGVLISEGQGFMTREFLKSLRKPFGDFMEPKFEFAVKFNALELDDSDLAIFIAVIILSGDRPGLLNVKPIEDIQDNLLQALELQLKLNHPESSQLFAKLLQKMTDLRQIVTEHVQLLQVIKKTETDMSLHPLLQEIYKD
- Test Method Notes: LanthaScreen TR-FRET PPARG Competitive Binding Assay
- Design: key: “+” indicates the degree of the binding activity, and as the number of “+” increases, the binding activity is stronger; ++: “+” indicates the degree of the binding activity, and as the number of “+” increases, the binding activity is stronger; +++: “+” indicates the degree of the binding activity, and as the number of “+” increases, the binding activity is stronger; ++++: “+” indicates the degree of the binding activity, and as the number of “+” increases, the binding activity is stronger
- Experimental Context: degree of binding activity
Result Type: Binding assay (1 μLM)

- Smiles Notation: "C[C@H](NC(=O)c1ccc2c(c1)OCCN2Cc1ccc(-c2ccccc2C(=O)O)cc1)c1ccc2ccccc2c1"
  Meas Value: "++++"
- Smiles Notation: "C[C@H](NC(=O)c1ccc2c(c1)CCCN2Cc1cccc(-c2ccccc2C(N)=O)c1F)c1ccc2ccccc2c1"
  Meas Value: "++++"
- Smiles Notation: "C[C@H](NC(=O)c1ccc2c(c1)CCCN2Cc1ccc(-c2ccccc2C(N)=O)cc1F)c1ccc([N+](=O)[O-])cc1"
  Meas Value: "++"
- Smiles Notation: "C[C@H](NC(=O)c1ccc2c(c1)CCCN2Cc1ccc(-c2ccccc2C(=O)O)cc1F)c1ccc(C#N)cc1"
  Meas Value: "+++"
